Below, each of the compounds is paired with its reported melting point value.

compound | endpoint | observed_measurement
Cc1c(C(=O)Nc2ccc(N3CCN(CCO)CC3)c(C#N)c2)cnn1-c1cccc(Cl)c1 | melting point | 176 to 177 °C

Would you mind telling me what melting point value was observed for COc1cc(-n2ccc(C)n2)ccc1C(=O)N1Cc2cccn2Cc2ccccc21 ?
92 to 94 °C

Would you mind telling me what melting point value was observed for N#CC1(Nc2cccc(Cl)c2)CCN(C(=O)c2cc(C(F)(F)F)cc(C(F)(F)F)c2)CC1 ?
205 to 207 °C

====

Below, each of the compounds is paired with its reported melting point value.

Illustrative cases are given below, each with its answer.
compound | endpoint | observed_measurement
Cc1ccc(C)c(C2CC(=O)C(C(=O)c3ccccc3)=C(O)C2)c1 (centres undefined) | melting point | 182 to 185 °C
N#Cc1ccc(N2CCc3nc4cc(Cl)ccc4c(Cl)c3C2)nc1 | melting point | 171 to 173 °C
O=C(N1CCCC(c2cccc3[nH]ccc23)C1)C(F)(F)F (centres undefined) | melting point | 170 °C

Would you mind telling me what melting point value was observed for CC(O)c1cccc(-c2ccc3nc(-c4ccc(Cl)cc4)cn3c2)c1F (centres undefined) ?
193 to 195 °C

Each recorded value in this set is attributed to a melting point compilation (Tetko et al.; mined from patent text by program, amines drawn as free bases though some values may be those of a salt).
